Provenance of the data: patent US20050209157A1

Test: in vitro
Type: cell-based, human
Details: human, human red blood cells, pH 7, hemolytic assay, concentration at 50% hemolysis, 1 hour at 37° C.; read-out: LD50
No end group written: not given here.
PROPERTY: HC50 at 1 h (µg/mL)

>  <SUBSTANCE>
FALALKA-NH2 [P141, FALALKA-NH2]

>  <NUMERIC READOUT>
900

$$$$
>  <SUBSTANCE>
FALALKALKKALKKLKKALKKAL-NH2 [P2, reference compound]

>  <NUMERIC READOUT>
10

$$$$
>  <SUBSTANCE>
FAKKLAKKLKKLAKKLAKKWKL-NH2 [P70]

>  <NUMERIC READOUT>
80

$$$$
>  <SUBSTANCE>
KLLKLLLKLYKKLLKLL-OH [P156]

>  <NUMERIC READOUT>
10

$$$$
>  <SUBSTANCE>
FAKLLALALKLKL-NH2 [P94]

>  <NUMERIC READOUT>
350

$$$$
>  <SUBSTANCE>
KYKKALKKLAKLL-NH2 [P146]

>  <NUMERIC READOUT>
180

$$$$
>  <SUBSTANCE>
FALKALKKLKKALKKAL-NH2 [P153]

>  <NUMERIC READOUT>
800

$$$$
>  <SUBSTANCE>
FAKKLAKKLKKLAKKLAK-NH2 [Shiva 10 (1-18) AM]

>  <NUMERIC READOUT>
900

$$$$
>  <SUBSTANCE>
FALAKLAKKAKAKLKKALKAL-NH2 [P26]

>  <NUMERIC READOUT>
90

$$$$
>  <SUBSTANCE>
VAKKFAKKFKKFAKKFAKFAFAF-NH2 [P503]

>  <NUMERIC READOUT>
20

$$$$
>  <SUBSTANCE>
FAKLLAKLAKKLL-NH2 [P43]

>  <NUMERIC READOUT>
20

$$$$
>  <SUBSTANCE>
KLALKLALKALKAAKLA-NH2 [P150]

>  <NUMERIC READOUT>
650

$$$$
>  <SUBSTANCE>
FAKLLAKLAKKL-NH2 [P49]

>  <NUMERIC READOUT>
225

$$$$
>  <SUBSTANCE>
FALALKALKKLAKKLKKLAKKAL-NH2 [P25]

>  <NUMERIC READOUT>
16

$$$$

---

System: P. aeruginosa H374
Format: cell-based, Pseudomonas aeruginosa
Conditions: Table 14; in µg/mL
No end group written: not given here.
Overview of reported MIC P. aeruginosa H374 across a group of substances:

>  <SUBSTANCE>
KAKLAKKALAKLL-NH2 [P149 (111)]

>  <VALUE OPERATOR>
=

>  <MIC P. aeruginosa H374>
128

$$$$
>  <SUBSTANCE>
FAKKLAKKLAKAAL-NH2 [P76 (52)]

>  <VALUE OPERATOR>
=

>  <MIC P. aeruginosa H374>
64

$$$$
>  <SUBSTANCE>
FKRLAKIKVLRLAKIKR-NH2 [P147 (109)]

>  <VALUE OPERATOR>
=

>  <MIC P. aeruginosa H374>
128

$$$$
>  <SUBSTANCE>
KFKKLAKKW-NH2 [P175 (136)]

>  <VALUE OPERATOR>
>

>  <MIC P. aeruginosa H374>
128

$$$$
>  <SUBSTANCE>
KFKKLAKKF-NH2 [P174 (135)]

>  <VALUE OPERATOR>
>

>  <MIC P. aeruginosa H374>
128

$$$$
